test system: KM12 colon; experiment: NCI tumour cell line growth inhibition, 48 h
Assignment: determine reported GI50 for the given compounds.

Batch: GI50 for all items listed.
1. COc1ccc2nc3cc(Cl)ccc3c(N3CCN(c4ccnc(N5CCN(C)CC5)n4)CC3)c2c1
2. COCCOCCOCCOCCOC(=O)OC[n+]1ccc(NC(=NCCCCCCOc2ccc(Cl)cc2)NC#N)cc1
3. C[C@H]1CN(C2COC2)CCN1c1ccc(Nc2cc(-c3ccnc(N4CCn5c(cc6c5CC(C)(C)C6)C4=O)c3CO)cn(C)c2=O)nc1

2.09 µM
< 0.0377 µM
56.8 µM

Batch: GI50 for all items listed.
1. Cn1c(C(=O)c2cccc3ccccc23)nc2ccccc21
2. [Cl][Cu][Cl]
3. COc1ccc(-c2c3c(N)c4c(nc3nc3c2c(C)nn3-c2ccccc2)CCCC4)cc1

["> 100 µM", "> 10 µM", "3.16 µM"]

Batch: GI50 for all items listed.
1. O=C1/C(=C/c2ccccc2O)N=C(c2ccccc2)N1c1cc(C(F)(F)F)ccc1Cl
2. COc1ccc(/C=N\Nc2nc(SCC(C)C)nc(-c3ccc(OC)cc3)c2C#N)cc1

1: 8.29 µM; 2: 10.6 µM

###

test system: UACC-257 melanoma; test: NCI tumour cell line growth inhibition, 48 h
Assignment: determine reported TGI for the given compounds.
Give bare numbers, in µM.

Consider the reported TGI for these compounds:
# compound, TGI, µM
records = [
    ("c1ccc(C2CCCCC2)c(OCCCCCN2CCNCC2)c1", 4.92),
    ("O=C1C=C(C2=C(C3=CC(=O)c4ccccc4C3=O)C(=O)c3ccccc3C2=O)C(=O)c2ccccc21", 25.4),
    ("CCC(C)N1CN(c2ccccc2)C2(CCN(CCCSc3ccc(F)cc3)CC2)C1=O (stereo unspecified)", 7.37),
    ("Clc1ccc([I+]c2ccc(Cl)cc2Cl)c(Cl)c1", 5.8),
    ("COc1ccc(NC/C=C/C(=C/COC(C)=O)OC(C)=O)cc1", 5.04),
    ("C=C1C(=O)O[C@H]2[C@H]1CC/C(COC(=O)NCc1c[nH]c3ccc(F)cc13)=C\\CC[C@@]1(C)O[C@@H]21", 3.29),
]

Now, please, on to the next compound.
Need TGI of C/C(=N\NC(=S)Nc1ccc([N+](=O)[O-])cc1)c1nc2ncccc2[nH]1 , thanks.
2.96

###

Assignment: determine reported TGI for the given molecules.
tested on: IGROV1 ovarian; test: NCI tumour cell line growth inhibition, 48 h

# molecule, TGI
data = [
    ("O=C(CO)C1CC2C=CC1C2 (centres undefined)", "> 100 µM"),
    ("Nc1nc2ncn(CC(O)CO)c2c(=O)[nH]1 (centres undefined)", "> 100 µM"),
    ("OC1COC(OCc2ccccc2)C(O)C1O (centres undefined)", "> 100 µM"),
    ("Nc1nc2ccccc2c2c1S(=O)(=O)c1ccc(Cl)cc1C2=O", "> 50 µM"),
    ("O=C(Nc1ccc2[nH]c(C(=O)N3CC(CCl)c4ccc([N+](=O)[O-])cc43)cc2c1)c1cc2ccccc2o1 (centres undefined)", "> 1100 µM"),
]

Batch: TGI for all items listed.
1. CC(=O)O[C@@H]1[C@H]2[C@@H](OC(=O)c3ccccc3)[C@@H](C)C[C@]2(O)[C@H](OC(C)=O)[C@@]2(C)[C@@H]3C[C@@](C)(OC(C)=O)C[C@@H](OC(C)=O)[C@@]3(OC(C)=O)C[C@@]12C
2. O=S(=O)(NCCCNc1nccc(-c2c(-c3ccc(F)cc3)nc3sccn23)n1)c1ccc(F)cc1
3. Cc1cc2c(c(=O)o1)C1=S(SC(c3ccccc3)=C1)S2 (centres undefined)
4. O=[N+]([O-])/C=C/c1cn(CCCCCCCCCCCCn2cc(/C=C/[N+](=O)[O-])c3ccccc32)c2ccccc12

1. > 10 µM
2. > 100 µM
3. > 100 µM
4. > 100 µM
